Source: ChEMBL document CHEMBL1139766

studyTarget: Beta-3 adrenergic receptor (Homo sapiens, UniProt P13945)
Sequence (P13945 whole entry, looked up): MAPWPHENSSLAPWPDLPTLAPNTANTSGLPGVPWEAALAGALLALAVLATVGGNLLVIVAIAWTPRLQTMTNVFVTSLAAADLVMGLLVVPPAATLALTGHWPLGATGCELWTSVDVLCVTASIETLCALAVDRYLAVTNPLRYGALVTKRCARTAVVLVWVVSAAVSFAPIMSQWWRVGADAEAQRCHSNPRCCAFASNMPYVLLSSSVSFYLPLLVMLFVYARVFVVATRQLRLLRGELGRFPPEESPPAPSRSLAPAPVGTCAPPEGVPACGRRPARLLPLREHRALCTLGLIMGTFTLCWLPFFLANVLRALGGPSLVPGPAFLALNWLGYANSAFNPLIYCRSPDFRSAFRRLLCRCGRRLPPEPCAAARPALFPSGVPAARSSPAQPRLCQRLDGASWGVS
experimentNotes: Intrinsic activity at human adrenergic beta-3 receptor expressed in CHO cells assessed as cAMP production relative to isoproterenol
Assay type: functional, cell-based
Known Intrinsic activity of a selection of molecules
measureName: Intrinsic activity

chemicalstring=CCc1nc(-c2ccc(OCCNC[C@H](O)c3cccnc3)cc2)co1 measured=133%
chemicalstring=O[C@@H](CNCCOc1ccc(-c2csc(-c3ccccc3)n2)cc1)c1cccnc1 measured=53%
chemicalstring=Cc1nc(-c2ccc(OCCNC[C@H](O)c3cccnc3)cc2)cs1 measured=106%
chemicalstring=O[C@@H](CNCCc1ccc(-c2csc(-c3cccnc3)n2)cc1)c1cccnc1 measured=106%
chemicalstring=O[C@@H](CNCCOc1ccc(-c2coc(COCc3ccccc3)n2)cc1)c1cccnc1 measured=137%
chemicalstring=CCc1nc(-c2ccc(CCNC[C@H](O)c3ccc(Cl)c(NS(C)(=O)=O)c3)cc2)cs1 measured=95%
chemicalstring=CCc1nc(-c2ccc(OCCNC[C@H](O)c3cccnc3)cc2)cs1 measured=106%
chemicalstring=Cc1nc(-c2ccc(CCNC[C@H](O)c3ccc(Cl)c(NS(C)(=O)=O)c3)cc2)cs1 measured=121%
chemicalstring=CCc1nc(-c2ccc(CCNC[C@H](O)c3cccnc3)cc2)cs1 measured=80%
chemicalstring=Cc1nc(-c2ccc(OCCNC[C@H](O)c3cccnc3)cc2)co1 measured=111%
